A collection of compounds and their measured EC50
Target: Vitamin D3 receptor A (Danio rerio)
Sequence (Q9PTN2 whole entry, the tested form may be a part): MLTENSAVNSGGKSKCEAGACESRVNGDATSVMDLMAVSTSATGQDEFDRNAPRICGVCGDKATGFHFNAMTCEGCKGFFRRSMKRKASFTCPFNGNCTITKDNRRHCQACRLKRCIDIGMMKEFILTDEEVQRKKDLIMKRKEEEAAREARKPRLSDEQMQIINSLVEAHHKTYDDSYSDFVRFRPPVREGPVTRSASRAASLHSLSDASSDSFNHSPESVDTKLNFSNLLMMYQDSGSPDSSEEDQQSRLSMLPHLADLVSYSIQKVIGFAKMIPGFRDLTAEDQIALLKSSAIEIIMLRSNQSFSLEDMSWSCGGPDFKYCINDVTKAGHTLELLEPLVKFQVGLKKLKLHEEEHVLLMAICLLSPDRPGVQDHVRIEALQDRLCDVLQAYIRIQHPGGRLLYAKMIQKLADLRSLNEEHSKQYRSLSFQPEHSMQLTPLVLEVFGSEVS
Experiment: Agonist activity at zebrafish gal4-VDR LBD expressed in human MCF7 cells by luciferase reporter gene based transactivation assay
I only need the number, in nM, no unit after it.

# smiles-representation, recorded-metric, recorded-result
measured = [
    ("[2H]C([2H])([2H])C(O)(CCC[C@H](CC#CC(O)(C(F)(F)F)C(F)(F)F)[C@H]1CC[C@H]2/C(=C/C=C3C[C@H](O)C[C@@H](O)C3)CCC[C@]12C)C([2H])([2H])[2H]", "EC50", 0.25),
    ("[2H]C([2H])([2H])C(O)(CCC[C@@H](CC#CC(O)(C(F)(F)F)C(F)(F)F)[C@H]1CC[C@H]2/C(=C/C=C3C[C@H](O)C[C@@H](O)C3)CCC[C@]12C)C([2H])([2H])[2H]", "EC50", 0.15),
]

Please find the next compound below.
Report measured EC50 on Vitamin D3 receptor A (Danio rerio); entry: C=C1/C(=C\C=C2/CCC[C@]3(C)[C@@H](C(CCCC(C)(C)O)CCCC(C)(C)O)CC[C@@H]23)C[C@H](O)C[C@H]1O 1.2

---

Assay: Antiproliferative activity against ER positive human MCF10CA1a cells after 3 days by [3H]thymidine uptake assay
Format: functional
A collection of molecules and their measured pIC50
Just so you know, pIC50 here is -log10 of the concentration in molar units; reply with that number alone.

# smiles-representation, pIC50
records = [
    ("[2H]C([2H])([2H])C(O)(CCC[C@H](CC#CC(O)(C(F)(F)F)C(F)(F)F)[C@H]1CC[C@H]2/C(=C/C=C3C[C@H](O)C[C@@H](O)C3)CCC[C@]12C)C([2H])([2H])[2H]", 9.82),
]

Please find the next molecule below.
Please supply the value of reported pIC50 for the item [2H]C([2H])([2H])C(O)(CCC[C@@H](CC#CC(O)(C(F)(F)F)C(F)(F)F)[C@H]1CC[C@H]2/C(=C/C=C3C[C@H](O)C[C@@H](O)C3)CCC[C@]12C)C([2H])([2H])[2H] 10.05

---

Assay: Antiproliferative activity against ER negative human MCF10DCIS.com cells after 3 days by [3H]thymidine uptake assay
recorded-metric: IC50 (nM)
I only need the number, in nM, no unit after it.

# smiles-representation, IC50, nM
rows = [
    ("[2H]C([2H])([2H])C(O)(CCC[C@@H](CC#CC(O)(C(F)(F)F)C(F)(F)F)[C@H]1CC[C@H]2/C(=C/C=C3C[C@H](O)C[C@@H](O)C3)CCC[C@]12C)C([2H])([2H])[2H]", 0.23),
]

Please find the next compound below.
Please supply the value of reported IC50 for the item [2H]C([2H])([2H])C(O)(CCC[C@H](CC#CC(O)(C(F)(F)F)C(F)(F)F)[C@H]1CC[C@H]2/C(=C/C=C3C[C@H](O)C[C@@H](O)C3)CCC[C@]12C)C([2H])([2H])[2H] 0.36

All values here come from ChEMBL document CHEMBL3217641.
